B1: tRNA (parent)
chain: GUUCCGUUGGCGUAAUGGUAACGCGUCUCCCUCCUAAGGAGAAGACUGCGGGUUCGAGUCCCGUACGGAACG

# Variants of: B1
# procedure text: yeast fitness relative to wild type (ratio to wild type); higher = fitter; tRNA-Arg(CCU), competitive growth, 37 C, YPD
Variants at the floor of the assay were thinned out.
property label: yeast fitness
Answers are plain numbers.

Look over these answered cases.
variant designation | result
U8A A36U G48C | 0.668
G25C C31A | 0.677
C29G C55A | 0.577
C5U U8A | 0.632
C55A U64A | 0.619

Give yeast fitness for each listed item.
1. U19C A21U C22A C49U
2. A37C C55A A65C

Response:
[0.536, 0.603]

Give yeast fitness for each listed item.
1. A15C C66U
2. U3A C46A G67U
3. G23C C31U

Response:
1: 0.605; 2: 0.603; 3: 0.579

# credit: the RNAGym collection of RNA variant scans (doi:10.1126/science.aae0568)
